The following molecules are shown together with reported #Cases >70% cell death values.
Test system: relapsed AML cells
test_method_notes: Drug sensitivity assay, 1,536-well, 3-day culture with individual approved drugs at 10 μM, viability by alamarBlue
Assay type: cell-based, human
Counter-ions that a name gives are not always drawn.
I only need the number, thanks.

// worked examples, #Cases >70% cell death included
[[record]]
molecule = "C[CH2][Hg][S]c1ccccc1C(=O)[O-].[Na+] [THIMEROSAL]"
measure = "#Cases >70% cell death"
quantitative_readout = 18

[[record]]
molecule = "O=C(O)C1[O][Sb]2[O]C(=O)C([O]2)C(C(=O)O)[O][Sb]2[O]C(=O)C1[O]2 (stereo not drawn) [ANTIMONY POTASSIUM TARTRATE TRIHYDRATE]"
measure = "#Cases >70% cell death"
quantitative_readout = 3

[[record]]
molecule = "COC(=O)C1=C(C)NC(C)=C(C(=O)OCCCN2CCC(c3ccccc3)(c3ccccc3)CC2)[C@@H]1c1cccc([N+](=O)[O-])c1 [DEXNIGULDIPINE]"
measure = "#Cases >70% cell death"
quantitative_readout = 8


# input For the molecule [O-][n+]1ccccc1[S-].[O-][n+]1ccccc1[S-].[Zn+2] [PYRITHIONE ZINC] , what #Cases >70% cell death is on record?
# output 7

# input For the molecule COC(=O)C1=C(C)NC(C)=C(C(=O)OCCCN2CCC(c3ccccc3)(c3ccccc3)CC2)[C@H]1c1cccc([N+](=O)[O-])c1 [NIGULDIPINE] , what #Cases >70% cell death is on record?
# output 12

# input For the molecule CCCCCCCCCCCCCCCC[n+]1ccccc1 , what #Cases >70% cell death is on record?
# output 18

###

Tested on: relapsed AML cells
test_method_notes: Drug sensitivity assay, 1,536-well, 3-day culture with individual approved drugs at 10 μM, viability by alamarBlue
Assay type: cell-based, human
condition_description: number of relapsed AML cases out of 18 tested with >70% cell death; 10 μM, 3-day culture
Where a name gives a salt, the structure may show the parent alone. Starred links: 1 amine or outer side, 2 acyl side, 3 side chain; linkers in the order of their positions; H or OH if unused. Positions of bridges follow the written chain, without caps; N, C: chain ends. Non-standard residues stand in square brackets, D forms with d. Residues, ends and D or L forms follow the SMILES beside them. Chains are numbered I, II in the order given. Actinocin(9to1) = Cc1c2oc3c(C)ccc(C(=O)[*:1])c3nc-2c(C(=O)[*:2])c(N)c1=O; NMeV = CN[C@H](C(=O)O)C(C)C; Sar = CNCC(=O)O
measure: #Cases >70% cell death
I only need the number, thanks.

[[record]]
compound = "COc1ccc(CN2CCN(C(c3ccc(F)cc3)c3ccc(F)cc3)CC2)c(OC)c1OC"
quantitative_readout = 7


# input Query #Cases >70% cell death on relapsed AML cells for Cc1c2oc3c(C)ccc(C(=O)N[C@@H]4C(=O)N[C@H](C(C)C)C(=O)N5CCC[C@H]5C(=O)N(C)CC(=O)N(C)[C@@H](C(C)C)C(=O)O[C@@H]4C)c3nc-2c(C(=O)N[C@@H]2C(=O)N[C@H](C(C)C)C(=O)N3CCC[C@H]3C(=O)N(C)CC(=O)N(C)[C@@H](C(C)C)C(=O)O[C@@H]2C)c(N)c1=O [DACTINOMYCIN] (I: T[dV]P[Sar][NMeV] / II: T[dV]P[Sar][NMeV]; ester I:1-I:C, II:1-II:C; linker I:N-II:N via Actinocin(9to1))
# output 17

# input Query #Cases >70% cell death on relapsed AML cells for CCN(CC)CCOc1ccc(Cc2ccccc2)cc1 [TESMILIFENE HYDROCHLORIDE]
# output 9

# input Query #Cases >70% cell death on relapsed AML cells for CC[C@H]1OC(=O)C[C@@H](O)[C@H](C)[C@@H](O[C@@H]2O[C@H](C)[C@@H](O[C@H]3C[C@@](C)(O)[C@@H](O)[C@H](C)O3)[C@H](N(C)C)[C@H]2O)[C@@H](CC=O)C[C@@H](C)C(=O)/C=C/C(C)=C/[C@@H]1CO[C@@H]1O[C@H](C)[C@@H](O)[C@@H](OC)[C@H]1OC
# output 1

###

Test system: relapsed AML cells
test_method_notes: Drug sensitivity assay, 1,536-well, 3-day culture with individual approved drugs at 10 μM, viability by alamarBlue
Type: cell-based, human
condition_description: number of relapsed AML cases out of 18 tested with >70% cell death; 10 μM, 3-day culture
measure: #Cases >70% cell death
I only need the number, thanks.

[[record]]
compound = "COc1ncnc(NS(=O)(=O)c2ccc(N)cc2)c1OC"
target_or_system = "relapsed AML cells"
measure = "#Cases >70% cell death"
quantitative_readout = 1

[[record]]
compound = "Nc1nc(F)nc2c1ncn2[C@@H]1O[C@H](CO)[C@@H](O)[C@@H]1O"
target_or_system = "relapsed AML cells"
measure = "#Cases >70% cell death"
quantitative_readout = 16

[[record]]
compound = "CCCCOc1cc(C(=O)OCCN(CC)CC)ccc1N [BENOXINATE]"
target_or_system = "relapsed AML cells"
measure = "#Cases >70% cell death"
quantitative_readout = 5

[[record]]
compound = "Fc1ccc(C(c2ccc(F)cc2)N2CCN(C/C=C/c3ccccc3)CC2)cc1"
target_or_system = "relapsed AML cells"
measure = "#Cases >70% cell death"
quantitative_readout = 3


Next compound, #Cases >70% cell death to be filled in.
# input For the compound CC(C)C[C@H](NC(=O)[C@H](Cc1ccccc1)NC(=O)c1cnccn1)B(O)O , what #Cases >70% cell death is on record?
# output 18

###

Tested on: relapsed AML cells
test_method_notes: Drug sensitivity assay, 1,536-well, 3-day culture with individual approved drugs at 10 μM, viability by alamarBlue
Type: cell-based, human
condition_description: number of relapsed AML cases out of 18 tested with >70% cell death; 10 μM, 3-day culture
The following compounds are shown together with reported #Cases >70% cell death values.
I only need the number, thanks.

[[record]]
compound = "CN(C(=O)CN(CCO)CC(=O)N(C)C(C)(C)Cc1ccccc1)C(C)(C)Cc1ccccc1"
quantitative_readout = 1


Next compound, #Cases >70% cell death to be filled in.
# input Query #Cases >70% cell death on relapsed AML cells for CCCCCCc1ccc(O)cc1O.Nc1c2ccccc2nc2ccccc12
# output 18

###

The following compounds are shown together with reported #Cases >70% cell death values.
Test system: relapsed AML cells
test_method_notes: Drug sensitivity assay, 1,536-well, 3-day culture with individual approved drugs at 10 μM, viability by alamarBlue
Type: cell-based, human
condition_description: number of relapsed AML cases out of 18 tested with >70% cell death; 10 μM, 3-day culture
Where a name gives a salt, the structure may show the parent alone.
I only need the number, thanks.

[[record]]
compound = "O=C(CCCN1CC=C(n2c(=O)[nH]c3ccccc32)CC1)c1ccc(F)cc1"
target_or_system = "relapsed AML cells"
quantitative_readout = 2


# input For the compound CC(=O)O[C@H]1C[C@H](O[C@H]2[C@@H](O)C[C@H](O[C@H]3[C@@H](O)C[C@H](O[C@H]4CC[C@@]5(C)[C@H](CC[C@@H]6[C@@H]5C[C@@H](O)[C@]5(C)[C@@H](C7=CC(=O)OC7)CC[C@]65O)C4)O[C@@H]3C)O[C@@H]2C)O[C@H](C)[C@H]1O[C@@H]1O[C@H](CO)[C@@H](O)[C@H](O)[C@H]1O [LANATOSIDE C] , what #Cases >70% cell death is on record?
# output 18

# input For the compound CC(=O)OCC(=O)[C@@]12N=C(C)O[C@@H]1C[C@H]1[C@@H]3CCC4=CC(=O)C=C[C@]4(C)[C@H]3[C@@H](O)C[C@@]12C , what #Cases >70% cell death is on record?
# output 8

# input For the compound N=C(N)NC(=O)Cc1c(Cl)cccc1Cl [GUANFACINE HCL] , what #Cases >70% cell death is on record?
# output 1

# input For the compound COc1ccc2nc3cc(Cl)ccc3c(Nc3cc(CN4CCCC4)c(O)c(CN4CCCC4)c3)c2n1.O=P(O)(O)O.O=P(O)(O)O.O=P(O)(O)O.O=P(O)(O)O [PYRONARIDINE TETRAPHOSPHATE] , what #Cases >70% cell death is on record?
# output 9

###

System: relapsed AML cells
test_method_notes: Drug sensitivity assay, 1,536-well, 3-day culture with individual approved drugs at 10 μM, viability by alamarBlue
Type: cell-based, human
condition_description: number of relapsed AML cases out of 18 tested with >70% cell death; 10 μM, 3-day culture
The following compounds are shown together with reported #Cases >70% cell death values.
I only need the number, thanks.

[[record]]
compound = "COC1=CC(c2cc3ccccc3[nH]2)=N/C1=C\\c1[nH]c(C)cc1C"
quantitative_readout = 2

[[record]]
compound = "Cc1ccc(C(=O)c2cc(O)c(O)c([N+](=O)[O-])c2)cc1"
quantitative_readout = 1

[[record]]
compound = "CN(C)c1ccc(C(=C2C=CC(=[N+](C)C)C=C2)c2ccc(N(C)C)cc2)cc1"
quantitative_readout = 18

[[record]]
compound = "CNC(=O)c1ccccc1Sc1ccc2c(/C=C/c3ccccn3)n[nH]c2c1"
quantitative_readout = 9

[[record]]
compound = "CCC[C@H](Nc1nc(-c2ccc(NC(=O)NCC)c(OC)c2)ncc1C)c1cccnc1"
quantitative_readout = 13

[[record]]
compound = "CC(=O)[C@@]1(O)CC[C@H]2[C@@H]3C[C@H](C)C4=CC(=O)C=C[C@]4(C)[C@@]3(F)[C@@H](O)C[C@@]21C"
quantitative_readout = 2


# input For the compound CCCCNc1ccc(C(=O)OCCN(C)C)cc1 , what #Cases >70% cell death is on record?
# output 12

# input For the compound C[C@@H]1C[C@H]2[C@@H]3CCC4=CC(=O)C=C[C@]4(C)[C@@]3(F)[C@@H](O)C[C@]2(C)[C@@]1(O)C(=O)CO , what #Cases >70% cell death is on record?
# output 2

# input For the compound CN(C[C@@H]1COCCO1)S(=O)(=O)Nc1ccc2ccc3ncc(-c4cnn(C)c4)cc3c(=O)c2c1 , what #Cases >70% cell death is on record?
# output 2

# input For the compound CN[C@H](C(=O)N[C@H](C(=O)N(C)[C@H](/C=C(\C)C(=O)O)C(C)C)C(C)(C)C)C(C)(C)c1ccccc1 , what #Cases >70% cell death is on record?
# output 14

# input For the compound C[C@@H]1C[C@H]2[C@@H]3CCC4=CC(=O)C=C[C@]4(C)[C@@]3(Cl)[C@@H](O)C[C@]2(C)[C@@]1(OC(=O)c1ccco1)C(=O)CCl [MOMETASONE FUROATE] , what #Cases >70% cell death is on record?
# output 2
